- Tested on: FLT3-autoinhibited
- measurement-conditions: concentration: 1 μM, replicates: in singlicate; n = 1;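 further: KINOMEscan kinase panel screen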
readout-type: %Inh (%)
Give the quantity in %, number only.

Consider the following illustrative entries.
O=C(Nc1ccccc1F)NC1CCN(c2ccnc(Nc3ccc(F)cc3)n2)CC1	0
CC(C)c1nc(-c2cccc(NS(=O)(=O)c3c(F)cccc3F)c2F)c(-c2ccnc(Nc3ccc(N4CCOCC4)nc3)n2)s1	0
C[C@@H]1CC[C@@H](C(=O)Nc2ccccc2)CN1c1cc(-c2ccc3c(N)n[nH]c3c2)nc(N)n1	0
Cc1ccc(C)c(NC(=O)NC2CCN(c3ccnc(Nc4ccc(F)cc4)n3)C2)c1 (stereo not shown)	0
COC(=O)Nc1nc2cc(Oc3ccc(NC(=O)Nc4cc(C(F)(F)F)ccc4F)cn3)ccc2[nH]1.Cl.Cl	40
NCCCC(NC(=O)c1cc(Br)c(-c2ccnc3[nH]ccc23)s1)c1ccccc1.O=C(O)C(F)(F)F.O=C(O)C(F)(F)F (stereo not shown)	6

Next compound, %Inh to be filled in.
Exercise: For the compound CCn1c(-c2nonc2N)nc2c(C#CC(C)(C)O)ncc(OCCCCN)c21.O=C(O)C(F)(F)F.O=C(O)C(F)(F)F , what %Inh is on record?
Solution: 0

###

This listing pairs molecules with measured %Inh.
- System: ROCK1
- measurement-conditions: concentration: 1 μM, replicates: in singlicate; n = 1
Answer with a number only, understood to be in %.

C[C@@H]1CC[C@@H](C(=O)Nc2ccccc2)CN1c1cc(-c2ccc3c(N)n[nH]c3c2)nc(N)n1 [GSK2286062]	14
Cc1ccc(C)c(NC(=O)NC2CCN(c3ccnc(Nc4ccc(F)cc4)n3)C2)c1 (centres unmarked) [GSK1379720]	0
CCc1ccc(-c2ccc3c(c2)-c2c(cnn2C)S(=O)(=O)N3C)cc1	0
Clc1ccc(-c2nn3ncccc3c2-c2ccnc(Nc3ccc4c(c3)OCCO4)n2)cc1 [GW829116]	37
Cl.Cl.NCC(C(=O)Nc1cc(Br)c(-c2ccnc3[nH]ccc23)s1)c1ccccc1 (centres unmarked) [GSK1269851]	99.1
O=C(Nc1cccc(-c2nn3ccccc3c2-c2ccnc(Nc3cccc(F)c3)n2)c1)c1c(F)ccc(F)c1Cl [GSK357952]	3
COc1ccc(CNC(=O)NC2CCN(c3ccnc(Nc4ccc(F)cc4)n3)CC2)cc1 [GSK1379788]	12

Okay, now this molecule:
Exercise: Value wanted: %Inh (ROCK1) of entry COc1ccc(Nc2nccc(N3CCC(NC(=O)Nc4cccc(OC)c4)C3)n2)cc1 (centres unmarked) [GSK1379742]
Solution: 0

###

Below is a list of entries, each paired with its recorded %Inh value.
- Test system: RET
- measurement-conditions: concentration: 1 μM, replicates: in singlicate; n = 1
Lab book: enter the figure in %, no units written.

Known results for compounds:
O=c1[nH]cc(-c2ccc(N3CCOCC3)cc2)c2sc(-c3cn[nH]c3)cc12	3
Cl.NC(=O)c1cccc(Nc2nccc(Nc3ccc(Oc4c(Cl)cccc4Cl)c(Cl)c3)n2)c1	0
COc1cc(Nc2nccc(N3CCC(NC(=O)c4cc5ccccc5s4)C3)n2)cc(OC)c1OC (centres unmarked)	21
c1ccc(-c2cnc3nccnn23)cc1	0
Cl.Cl.NCC(C(=O)Nc1cc(Br)c(-c2ccnc3[nH]ccc23)s1)c1ccccc1 (centres unmarked)	32
COc1cc2c(cc1OCCN1CCNCC1)ncc1c3ccc(C#N)cc3[nH]c21	35
COCCOCCOc1cc2ncc3c4ccc(C#N)cc4[nH]c3c2cc1OC	45
O=C(Nc1n[nH]c2cc(-c3ccoc3)ccc12)C1CC1	0

Exercise: If you can, please state the reported %Inh value of COc1ccc(Nc2nccc(N3CCC(NC(=O)Nc4cccc(OC)c4)C3)n2)cc1 (centres unmarked) .
Solution: 7

Exercise: # get_value(readout='%Inh', item= O=C(Nc1cccc(-c2nn3ncccc3c2-c2ccnc(Nc3ccccc3)n2)c1)c1c(F)cccc1F )
Solution: 99.7

Exercise: Field request: %Inh | item: COc1cccc(-c2ccc3c(NC(=O)C4CC4)n[nH]c3n2)c1
Solution: 6
